Method: Acute toxicity in mice (LD 50, intraperitoneal)
Condition: mouse, in vivo, ip, CD1 mice, deaths recorded 48 hours after administration, determined graphically
Procedure: I. Acute toxicity in mice The compounds of the invention and the reference substances were administered intraperitoneally to CD1 mice. The 50% lethal dose (LD 50) was determined graphically. The number of dead animals 48 hours after intraperitoneal administration was recorded.
Could you mark each record satisfied if its LD50 at 48 h falls strictly under 600 mg/kg, and not satisfied if it equals or exceeds it?

Look over these answered cases.
| Compound | Group Label |
| --- | --- |
| Cc1ccccc1C(=NCCCC(=O)O)c1cc(F)ccc1O [75,029] | satisfied |
| O=C(O)CCCN=C(c1ccc(Cl)cc1)c1cc(F)ccc1O [75,102] | satisfied |
| Cc1ccc(O)c(C(=NCCCC(=O)O)c2ccccc2Cl)c1 [75,136] | satisfied |
| O=C(CCCN=C(c1ccccc1)c1cc(F)ccc1O)NC1CCC1 [76,030] | not satisfied |
| NC(=O)CCCN=C(c1cc(F)ccc1O)c1ccccc1Cl [76,086] | satisfied |
| CCOC(=O)CCCNC(=O)CCCN=C(c1ccccc1)c1cc(F)ccc1O [75,168] | not satisfied |

Prompt: Given CCCC(CCN=C(c1ccccc1)c1cc(F)ccc1O)C(=O)O (stereo not shown) [76,085] , is recorded LD50 at 48 h strictly lower than 600 mg/kg?
Completion: satisfied

Prompt: Given O=C(O)CCCN=C(c1ccccc1)c1ccccc1O [SL 74,227] , is recorded LD50 at 48 h strictly lower than 600 mg/kg?
Completion: not satisfied

Prompt: Given NC(=O)CN1CCCC1=O [PIRACETAM, reference compound] , is recorded LD50 at 48 h strictly lower than 600 mg/kg?
Completion: not satisfied

Prompt: Given O=C(O)CCCN=C(c1cccc(F)c1)c1cc(F)ccc1O [75,044] , is recorded LD50 at 48 h strictly lower than 600 mg/kg?
Completion: not satisfied

Prompt: Given O=C(O)CCCN=C(c1cc(F)ccc1O)c1ccccc1F [75,017] , is recorded LD50 at 48 h strictly lower than 600 mg/kg?
Completion: satisfied

Prompt: Given COc1ccc(C(=NCCCC(=O)O)c2ccc(Cl)cc2)c(O)c1 [75,118] , is recorded LD50 at 48 h strictly lower than 600 mg/kg?
Completion: satisfied

Prompt: Given O=C(O)CCCCN=C(c1ccccc1)c1ccccc1O [75,006] , is recorded LD50 at 48 h strictly lower than 600 mg/kg?
Completion: not satisfied

Prompt: Given O=C(CCCN=C(c1ccccc1)c1cc(F)ccc1O)NC1CCCC1 [76,011] , is recorded LD50 at 48 h strictly lower than 600 mg/kg?
Completion: not satisfied

* * *

Method: Acute toxicity in mice (LD 50, intraperitoneal)
Condition: mouse, in vivo, ip, CD1 mice, deaths recorded 48 hours after administration, determined graphically
Could you mark each record y if its LD50 at 48 h falls strictly under 600 mg/kg, and n if it equals or exceeds it?

Look over these answered cases.
| Substance Smiles | Group Label |
| --- | --- |
| CN(C)C(=O)CCCN=C(c1ccccc1)c1cc(F)ccc1O | n |
| O=C(CCCN=C(c1ccccc1)c1cc(F)ccc1O)NC1CC1 | n |
| O=C(O)CCCN=C(c1ccccc1)c1cc(Cl)ccc1O | y |
| NCCCC(=O)O | n |

Prompt: Given O=C(O)CCCN=C(c1ccc(F)cc1)c1cc(F)ccc1O , is recorded LD50 at 48 h strictly lower than 600 mg/kg?
Completion: n

Prompt: Given O=C(O)CCCCCCCCCCN=C(c1ccccc1)c1ccccc1O , is recorded LD50 at 48 h strictly lower than 600 mg/kg?
Completion: y

Prompt: Given O=C(O)CCN=C(c1ccccc1)c1ccccc1O , is recorded LD50 at 48 h strictly lower than 600 mg/kg?
Completion: n

Prompt: Given COc1ccc(C(=NCCCC(=O)O)c2ccccc2)c(O)c1 , is recorded LD50 at 48 h strictly lower than 600 mg/kg?
Completion: n

Prompt: Given O=C(O)CCCCCN=C(c1ccccc1)c1cc(F)ccc1O , is recorded LD50 at 48 h strictly lower than 600 mg/kg?
Completion: n

Prompt: Given NC(=O)CCCN=C(c1ccc(F)cc1)c1cc(F)ccc1O , is recorded LD50 at 48 h strictly lower than 600 mg/kg?
Completion: n

Prompt: Given O=C(O)CCCCCN=C(c1ccccc1)c1ccccc1O , is recorded LD50 at 48 h strictly lower than 600 mg/kg?
Completion: n

Prompt: Given O=C(O)CCCCCCCCCCN=C(c1ccccc1)c1cc(F)ccc1O , is recorded LD50 at 48 h strictly lower than 600 mg/kg?
Completion: y

Prompt: Given CC(C)NC(=O)CCCN=C(c1ccccc1)c1cc(F)ccc1O , is recorded LD50 at 48 h strictly lower than 600 mg/kg?
Completion: n

Prompt: Given O=C(O)CCCN=C(c1ccccc1O)c1ccccc1Cl , is recorded LD50 at 48 h strictly lower than 600 mg/kg?
Completion: y

* * *

Recorded LD50 at 48 h by entry
Method: Acute toxicity in mice (LD 50, intraperitoneal)
Condition: mouse, in vivo, ip, CD1 mice, deaths recorded 48 hours after administration, determined graphically
Just the number please, in mg/kg, no unit attached.

| Substance Smiles | LD50 at 48 h, mg/kg |
| --- | --- |
| NC(=O)CCCN=C(c1cccc(Cl)c1)c1cc(F)ccc1O | 600 |
| O=C(O)CCCCCCCN=C(c1ccccc1)c1ccccc1O | 600 |

Query Cc1ccc(O)c(C(=NCCCC(=O)O)c2ccccc2F)c1 yields LD50 at 48 h of 600

Query O=C(O)CCCN=C(c1ccccc1)c1cc(F)ccc1O yields LD50 at 48 h of 600

Query O=C(O)CCCN=C(c1ccccc1O)c1ccccc1F yields LD50 at 48 h of 675

Query NC(=O)CCCN=C(c1ccc(Cl)cc1)c1cc(F)ccc1O yields LD50 at 48 h of 900

* * *

Method: Acute toxicity in mice (LD 50, intraperitoneal)
Condition: mouse, in vivo, ip, CD1 mice, deaths recorded 48 hours after administration, determined graphically
Protocol: I. Acute toxicity in mice The compounds of the invention and the reference substances were administered intraperitoneally to CD1 mice. The 50% lethal dose (LD 50) was determined graphically. The number of dead animals 48 hours after intraperitoneal administration was recorded.
Parameter Measured: LD50 at 48 h (mg/kg)
Just the number please, in mg/kg, no unit attached.

These solved cases illustrate the format of a correct answer.
| Molecule | Assay Value |
| --- | --- |
| O=C(O)CCCCN=C(c1ccccc1)c1cc(F)ccc1O [SL 75,106] | 600 |
| CCCCN(CCCC)C(=O)CCCN=C(c1ccccc1)c1cc(F)ccc1O [76,023] | 1700 |
| NC(=O)CN=C(c1ccccc1)c1cc(F)ccc1O [75,083] | 650 |
| NC(=O)CN=C(c1ccccc1)c1ccccc1O [75,037] | 1350 |

Query O=C(O)CCCN=C(c1cc(F)ccc1O)c1ccccc1Cl [75,027] yields LD50 at 48 h of 375
